system: UniProtKB Q16790
experimentalReadout: pKi
Scale explanation: pKi corresponds to minus log10 of a concentration expressed in moles per litre.

I looked up COC1=CC=CC2N1c1ccncc1S(=O)(=O)N2c1ccncc1S(N)(=O)=O (stereo unspecified) and its pKi for UniProtKB Q16790 was 8.06

Source listed as ChEMBL document CHEMBL1817544.
